Tested on: ACHN renal
Test: NCI tumour cell line growth inhibition, 48 h
Listed here are compounds together with their documented GI50.
recorded-endpoint: GI50

{"compound": "COC(=O)[C@@]1(C)CC[C@]2(C)CC[C@]3(C)C4=CC=C5C(=CC(=O)C(O)=C5C)[C@]4(C)[C@@H](O)C[C@@]3(C)[C@@H]2C1", "val": "3.8 µM"}
{"compound": "O=C1c2cccnc2C(=O)c2nc3cc(N4CCN(C5CC5)CC4)ccc3nc21", "val": "0.6 µM"}
{"compound": "CN(C)CC(=O)Nc1ccc(Cn2nnc3c2C(=O)c2nnn(Cc4ccc(NC(=O)CN(C)C)cc4)c2C3=O)cc1", "val": "0.335 µM"}
{"compound": "O=C1/C(=C\\c2c[nH]c3ccccc23)c2ccccc2N1c1c(Cl)cccc1Cl", "val": "2.4 µM"}
{"compound": "Cc1cc(N(CCCl)CCCl)ccc1C=Nc1ccc(-c2csc(Cc3ccccc3)n2)cc1", "val": "5.35 µM"}
{"compound": "Nc1nc2c(c3ncncc13)C(c1cccc(C(F)(F)F)c1)Cc1ncncc1-2 (centres undefined)", "val": "7.06 µM"}
{"compound": "COc1cccc2c1c(C(=O)C(=O)Nc1cc(C)no1)cn2Cc1ccc(F)cc1", "val": "15.4 µM"}
{"compound": "CC1(C)CC(=O)c2c(C(F)(F)F)nn(-c3ccc(C(N)=O)c(NC4CCC(OC(=O)CN)CC4)c3)c2C1 (centres undefined)", "val": "0.0622 µM"}
{"compound": "CN(C)CCNc1c2c(c(NCCN(C)C)c3[nH]ccc13)C(=O)c1ccccc1C2=O", "val": "0.476 µM"}
{"compound": "Cn1cccc1-c1cc(-c2cccs2)nc(N)c1C#N", "val": "> 100 µM"}
{"compound": "NCCn1c(=O)[nH]c(=O)[nH]c1=S", "val": "> 100 µM"}
{"compound": "Cc1ccccc1[P+](Cc1ccccc1)(c1ccccc1)c1ccccc1", "val": "8.3 µM"}
{"compound": "CC[C@@H](C(=O)O)C1CC[C@H](C)C([C@@H](C)[C@H](O)[C@H](C)C(=O)[C@H](CC)C2O[C@]3(C=C[C@@H](O)[C@]4(CC[C@@](C)(C5CC[C@](O)(CC)[C@H](C)O5)O4)O3)[C@H](C)C[C@@H]2C)O1 (some centres undefined)", "val": "0.504 µM"}
{"compound": "CCCCCCCCCCCCCCCCN1CC2CCCCC2C1 (centres undefined)", "val": "15.7 µM"}

###

Test system: 786-0 renal
Assay: NCI tumour cell line growth inhibition, 48 h

{"compound": "Cn1c(=O)c2c(nc(-n3nc(-c4ccc(Cl)cc4)cc3N)n2C)n(C)c1=O", "TGI": "> 100 µM"}
{"compound": "CC1CNc2ccccc2N=C1NN (stereo unspecified)", "TGI": "> 100 µM"}
{"compound": "CCNCCNc1c2ccccc2nc2ccccc12", "TGI": "13.4 µM"}
{"compound": "CN(CC1(CO)CCC1)c1cc(Cl)nc(N)n1", "TGI": "> 100 µM"}
{"compound": "COc1ccc2c(C)cc(N/N=C(\\C)C=O)nc2c1", "TGI": "28.6 µM"}
{"compound": "COc1ccc(-c2ccc(/C=N/n3c(COc4ccc(Cl)cc4Cl)nn(CN4CCOCC4)c3=S)o2)c([N+](=O)[O-])c1", "TGI": "> 100 µM"}
{"compound": "C=CCOc1ccc(/C(N=Nc2ccc(Cl)cc2)=N/NC(=O)c2ccccc2)cc1OC", "TGI": "> 100 µM"}
{"compound": "CC#CC#C/C=C1/O[C@]2(CCC(OC(C)=O)CO2)[C@@H]2O[C@H]12 (stereo partly specified)", "TGI": "46.9 µM"}
{"compound": "Cc1cc(N(CCCl)CCCl)ccc1C=Nc1ccc(-c2csc(Cc3ccccc3)n2)cc1", "TGI": "49.1 µM"}
{"compound": "CC1=C(C)C(=O)c2c(cc3ccccn23)C1=O", "TGI": "72.9 µM"}
{"compound": "COc1ccc(OC)c(NC(=O)C2=C(C)NC(C)=C(C(=O)Nc3cc(OC)ccc3OC)C2c2ccccc2)c1", "TGI": "> 100 µM"}
